tested on: UACC-257; experiment: cells; format: functional, cell-based, Homo sapiens; conditions: Homo sapiens, UACC-257
Description: SANGER: Inhibition of human UACC-257 cell growth in a cell viability assay.
ENDPOINT: IC50

COMPOUND: O=S(=O)(O)c1ccc2cc(/N=N/c3cc(S(=O)(=O)O)c4cccnc4c3O)ccc2c1
ENDPOINT: IC50
REPORTED_VALUE: > 16000 nM
//
COMPOUND: COc1cc(N2CCC(N3CCN(C)CC3)CC2)ccc1Nc1ncc(Cl)c(Nc2ccccc2S(=O)(=O)C(C)C)n1 [TAE-684]
ENDPOINT: IC50
REPORTED_VALUE: > 2000 nM
//
COMPOUND: Cc1ccc(C(=O)Nc2ccc(CN3CCN(C)CC3)c(C(F)(F)F)c2)cc1C#Cc1cnc2cccnn12 [PONATINIB]
ENDPOINT: IC50
REPORTED_VALUE: > 512 nM
//
COMPOUND: CS(=O)(=O)N1CCN(Cc2cc3nc(-c4cccc5[nH]ncc45)nc(N4CCOCC4)c3s2)CC1 [PICTILISIB]
ENDPOINT: IC50
REPORTED_VALUE: > 4000 nM
//
COMPOUND: NC(=O)c1cccc(-c2cc(Nc3ccc(OC(F)(F)F)cc3)ncn2)c1
ENDPOINT: IC50
REPORTED_VALUE: > 1280 nM
//
COMPOUND: CN(NC(=O)CC(=O)NN(C)C(=S)c1ccccc1)C(=S)c1ccccc1 [ELESCLOMOL]
ENDPOINT: IC50
REPORTED_VALUE: 22 nM

###

tested on: JIYOYE; assay: cells; format: functional, cell-based, Homo sapiens; conditions: Homo sapiens, JIYOYE
Description: SANGER: Inhibition of human JiyoyeP-2003 cell growth in a cell viability assay.
pIC50: −log10 of the molar value.
compounds and their reported pIC50
ENDPOINT: pIC50

RECORD_SMILES: COC(=O)[C@H](CCSC)NC(=O)c1ccc(NC[C@@H](N)CS)cc1-c1ccccc1
OPERATOR_SYMBOL: <
REPORTED_VALUE: 5.99
--
RECORD_SMILES: COc1ccc(-c2cc3nccn3c(Nc3ncccc3C(N)=O)n2)cc1OC
OPERATOR_SYMBOL: =
REPORTED_VALUE: 5.81

###

molecules and their reported IC50
system: BPH-1; assay: cells; format: functional, cell-based; conditions: Homo sapiens;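 further: cell viability assay measuring growth inhibition of human BPH-1 cells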
Description: SANGER: Inhibition of human BPH-1 cell growth in a cell viability assay.

RECORD_SMILES: COC(=O)[C@H](CCSC)NC(=O)c1ccc(NC[C@@H](N)CS)cc1-c1ccccc1
U: nM
OPERATOR_SYMBOL: >
IC50: 1020

RECORD_SMILES: NC(=O)Nc1cc(-c2cccc(F)c2)sc1C(=O)N[C@H]1CCCNC1
U: nM
OPERATOR_SYMBOL: >
IC50: 2000

RECORD_SMILES: Cc1ccc(C(=O)Nc2ccc(CN3CCN(C)CC3)c(C(F)(F)F)c2)cc1C#Cc1cnc2cccnn12
U: nM
OPERATOR_SYMBOL: >
IC50: 512

RECORD_SMILES: CC1=C(/C=C/C(C)=C/C=C/C(C)=C/C(=O)O)C(C)(C)CCC1
U: nM
OPERATOR_SYMBOL: =
IC50: 7440

RECORD_SMILES: CS(=O)(=O)N1CCN(Cc2cc3nc(-c4cccc5[nH]ncc45)nc(N4CCOCC4)c3s2)CC1
U: nM
OPERATOR_SYMBOL: =
IC50: 314

###

system: A2780; test: cells; assay type: functional, cell-based; conditions: Homo sapiens;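 further: growth inhibition of A2780 cells, read out with a cell viability assay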
Description: SANGER: Inhibition of human A2780 cell growth in a cell viability assay.
pIC50: −log10 of the molar value.
ENDPOINT: pIC50

RECORD_SMILES: NC(=O)c1ccc(N(C(N)=O)c2c(F)cccc2F)nc1-c1ccc(F)cc1F
ENDPOINT: pIC50
OPERATOR_SYMBOL: <
REPORTED_VALUE: 5.70

RECORD_SMILES: O=S(=O)(O)c1ccc2cc(/N=N/c3cc(S(=O)(=O)O)c4cccnc4c3O)ccc2c1
ENDPOINT: pIC50
OPERATOR_SYMBOL: <
REPORTED_VALUE: 4.80

RECORD_SMILES: Cc1ccc(-n2nc(C(C)(C)C)cc2NC(=O)Nc2ccc(OCCN3CCOCC3)c3ccccc23)cc1
ENDPOINT: pIC50
OPERATOR_SYMBOL: <
REPORTED_VALUE: 5.00

RECORD_SMILES: Cc1ccc(C(=O)Nc2ccc(CN3CCN(C)CC3)c(C(F)(F)F)c2)cc1C#Cc1cnc2cccnn12
ENDPOINT: pIC50
OPERATOR_SYMBOL: =
REPORTED_VALUE: 6.46

RECORD_SMILES: CCCCCCCCCCCC1=C(O)C(=O)C=C(O)C1=O
ENDPOINT: pIC50
OPERATOR_SYMBOL: =
REPORTED_VALUE: 4.88

###

test system: SK-MEL3; assay: cells; assay type: functional, cell-based, SK-MEL-3; settings: Homo sapiens
Description: SANGER: Inhibition of human SK-MEL-3 cell growth in a cell viability assay.
compounds and their reported IC50

RECORD_SMILES: O=C(NCCCNc1nc(Nc2cccc(NC(=O)N3CCCC3)c2)ncc1I)c1cccs1
IC50: > 5 µM

RECORD_SMILES: O=C1NC(=O)c2c1c(-c1ccccc1Cl)cc1[nH]c3ccc(O)cc3c21
IC50: 1.31 µM

RECORD_SMILES: NC1(c2ccc(-c3nc4ccn5c(=O)[nH]nc5c4cc3-c3ccccc3)cc2)CCC1
IC50: > 4 µM

RECORD_SMILES: Cc1ccc(-n2nc(C(C)(C)C)cc2NC(=O)Nc2ccc(OCCN3CCOCC3)c3ccccc23)cc1
IC50: > 10 µM

RECORD_SMILES: O=S(=O)(O)c1ccc2cc(/N=N/c3cc(S(=O)(=O)O)c4cccnc4c3O)ccc2c1
IC50: > 16 µM

RECORD_SMILES: OC[C@H](Cc1ccccc1)Nc1nc(Oc2ccc3c(c2)CCC3)nc2c1ncn2Cc1ccc(-c2ccccc2)cc1
IC50: > 10.2 µM

###

test system: EM-2; assay: cells; format: functional, cell-based, Homo sapiens; conditions: Homo sapiens, EM-2
Description: SANGER: Inhibition of human EM-2 cell growth in a cell viability assay.
pIC50: −log10 of the molar value.
molecules and their reported pIC50
ENDPOINT: pIC50

RECORD_SMILES: Cc1cc(N2CCOCC2)cc2[nH]c(-c3c(NC[C@@H](O)c4cccc(Cl)c4)cc[nH]c3=O)nc12
ENDPOINT: pIC50
OPERATOR_SYMBOL: <
REPORTED_VALUE: 5.29
//
RECORD_SMILES: O=C(NCCCNc1nc(Nc2cccc(NC(=O)N3CCCC3)c2)ncc1I)c1cccs1
ENDPOINT: pIC50
OPERATOR_SYMBOL: =
REPORTED_VALUE: 5.63
//
RECORD_SMILES: CCCCCCCCCCCC1=C(O)C(=O)C=C(O)C1=O
ENDPOINT: pIC50
OPERATOR_SYMBOL: <
REPORTED_VALUE: 4.49
//
RECORD_SMILES: COC(=O)[C@H](CCSC)NC(=O)c1ccc(NC[C@@H](N)CS)cc1-c1ccccc1
ENDPOINT: pIC50
OPERATOR_SYMBOL: <
REPORTED_VALUE: 5.99
//
RECORD_SMILES: COc1cc(N2CCC(N3CCN(C)CC3)CC2)ccc1Nc1ncc(Cl)c(Nc2ccccc2S(=O)(=O)C(C)C)n1
ENDPOINT: pIC50
OPERATOR_SYMBOL: =
REPORTED_VALUE: 5.73

###

test system: CAL-54; assay: cells; type: functional, cell-based; conditions: Homo sapiens
Description: SANGER: Inhibition of human CAL-54 cell growth in a cell viability assay.
pIC50: −log10 of the molar value.

RECORD_SMILES: CO[C@@H]1[C@H](N(C)C(=O)c2ccccc2)C[C@H]2O[C@]1(C)n1c3ccccc3c3c4c(c5c6ccccc6n2c5c31)C(=O)NC4
TEST_TARGET: CAL-54
pIC50: 6.68

RECORD_SMILES: O=C1NC(=O)c2c1c(-c1ccccc1Cl)cc1[nH]c3ccc(O)cc3c21
TEST_TARGET: CAL-54
pIC50: < 5.70

RECORD_SMILES: COc1ccc(-c2cc3nccn3c(Nc3ncccc3C(N)=O)n2)cc1OC
TEST_TARGET: CAL-54;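 further: growth inhibition of CAL-54 cells, read out by a viability measurement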
pIC50: < 5.10

###

molecules and their reported pIC50
test system: SUP-T1; assay: cells; assay type: functional, cell-based, Homo sapiens; conditions: Homo sapiens, SUP-T1
Description: SANGER: Inhibition of human SUP-T1 cell growth in a cell viability assay.
pIC50: −log10 of the molar value.
ENDPOINT: pIC50

RECORD_SMILES: C/C(=C\c1csc(C)n1)[C@@H]1C[C@@H]2O[C@]2(C)CCC[C@H](C)[C@H](O)[C@@H](C)C(=O)C(C)(C)[C@@H](O)CC(=O)O1
TEST_TARGET: SUP-T1
REPORTED_VALUE: < 7.49
--
RECORD_SMILES: COc1cc(N2CCC(N3CCN(C)CC3)CC2)ccc1Nc1ncc(Cl)c(Nc2ccccc2S(=O)(=O)C(C)C)n1
TEST_TARGET: SUP-T1
REPORTED_VALUE: < 5.70
--
RECORD_SMILES: CC(C)C[C@H](NC(=O)[C@H](Cc1ccccc1)NC(=O)c1cnccn1)B(O)O
TEST_TARGET: SUP-T1
REPORTED_VALUE: < 7.70
--
RECORD_SMILES: O=S(=O)(O)c1ccc2cc(/N=N/c3cc(S(=O)(=O)O)c4cccnc4c3O)ccc2c1
TEST_TARGET: SUP-T1;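 further: growth inhibition of human SUP-T1 cells, read out as cell viability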
REPORTED_VALUE: < 4.80
